- Tested on: OVCAR-3 ovarian
- Test summary: NCI-60 one-dose screen, 48 h
- Conditions used: 10 µM unless noted
About 83,000 compounds went through this panel and 20% of them were active in at least one assay; those are over-represented in the sample as a whole. Activity calls are given as the source filed them. How the source made its calls: active means growth percent below 10; inactive means the rest.
Parameter call: string, one of yes (1) for active, no (0) for inactive

Previously resolved entries follow.
CCCCCCCCCCCC[n+]1ccccc1; yes (1)
COc1ccc(-c2ccc3ncc4c(c3c2)n(-c2ccc(N3CCNCC3)c(C(F)(F)F)c2)c(=O)n4C)cn1; yes (1)
O=C1/C(=C\c2cccc(OCCCCCOc3ccc(Cl)cc3)c2)N=C2SCCCN12; no (0)
Cn1cnc2c(F)c(Nc3ccc(Br)cc3Cl)c(C(=O)NOCCO)cc21; no (0)

Now consider the entry below.
query: Please state the recorded outcome for this compound: COC(=O)[C@@H](NC(=O)[C@@H](OC)[C@@H]1Cc2cc3cc(OC4CC(OC5CC(O)C(O)C(C)O5)C(O)C(C)O4)c(C)c(O)c3c(O)c2C(=O)[C@H]1OC1CC(OC2CC(OC3CC(C)(O)C(O)C(C)O3)C(O)C(C)O2)C(O)C(C)O1)C(C)C (stereo not given in full)
result: no (0)
